conditions: in acetonitrile, 318.15 K
METRIC_NAME: solubility (mole fraction)
Numbers only.

Ask: # get_value(readout='solubility (mole fraction)', item= COc1ccc(CN2CCNCC2)c(OC)c1OC.Cl.Cl )
Reply: 2.38e-05

---

conditions: in ethyl acetate, 288.15 K
METRIC_NAME: solubility (mole fraction)
Give bare numbers.

Ask: # get_value(readout='solubility (mole fraction)', item= COc1ccc(CN2CCNCC2)c(OC)c1OC.Cl.Cl )
Reply: 0.00217

---

conditions: in acetonitrile, 308.15 K
METRIC_NAME: solubility (mole fraction)

Ask: # get_value(readout='solubility (mole fraction)', item= COc1ccc(CN2CCNCC2)c(OC)c1OC.Cl.Cl )
Reply: 2.04e-05
